# Procedure Text: in vitro
# Experimental Setup: human, hela cells
Observable: CC50 (µg/mL)
Use µg/mL as the unit, but write only the number.

These solved cases illustrate the format of a correct answer.
Clc1cc(Cl)c2nc(CNc3ccncc3)[nH]c2c1 [XXVII] :: 17.8
Cc1cc2nc(CNc3ccncc3)[nH]c2cc1Cl [XXIX] :: 56.2

Continue with the next molecule.
(Q) Fill in CC50 for record CC(C)c1ccc2[nH]c(CNc3ccncc3)nc2c1 [VI]
(A) 56.2

---

# Tested on: poliovirus type 2 (Polio2)
# Procedure Text: microbe, parasite or virus in culture
# Assay type: cell-based
# Experimental Setup: CI = CD50 (LLC-MK2)/IC50 (plaque)
# maps each entry to its CI Polio2 (C)/(A)

Sample records with CI Polio2 (C)/(A):
Clc1ccc(-n2c(CNc3ccncc3)nc3ccccc32)cc1 :: > 111
Cn1c(CNc2ccncc2)nc2ccccc21 :: > 6
Fc1ccc(-n2c(CNc3ccncc3)nc3ccccc32)cc1 :: > 256
CCc1cc2nc(CNc3ccncc3)[nH]c2cc1Cl :: 3
CCCCn1c(CNc2ccncc2)nc2cc(C)ccc21 :: 51

(Q) Given "Cc1cc2nc(CNc3ccncc3)[nH]c2cc1Br" , report its CI Polio2 (C)/(A) on poliovirus type 2 (Polio2).
(A) 5

(Q) Write down measured CI Polio2 (C)/(A) (poliovirus type 2 (Polio2)) for this compound. "c1ccc(-n2c(CNc3ccncc3)nc3ccccc32)cc1"
(A) 29

(Q) Find CI Polio2 (C)/(A) for "CC(=O)OCCOCn1c(CNc2ccncc2)nc2ccccc21" on poliovirus type 2 (Polio2) and write it down.
(A) > 6

(Q) Answer briefly: CI Polio2 (C)/(A) recorded on poliovirus type 2 (Polio2) for "CCc1cc2[nH]c(CNc3ccncc3)nc2cc1Br"
(A) 1

(Q) Answer with CI Polio2 (C)/(A) of "Cc1cc2nc(CNc3ccncc3)[nH]c2cc1Cl" measured for poliovirus type 2 (Polio2).
(A) 3

(Q) Report its CI Polio2 (C)/(A) with poliovirus type 2 (Polio2) as the test system: "CCCCCn1c(CNc2ccncc2)nc2ccccc21"
(A) 74

---

# System: enterovirus type 70 (EV70)
# Procedure Text: Inhibition of EV70 plaque formation in LLC-MK2 cells
# Assay type: cell-based
# Experimental Setup: CI = CD50 (LLC-MK2)/IC50 (plaque)
# maps each entry to its CI EV70 (C)/(A)

Cc1cccc(-n2c(CNc3ccncc3)nc3ccccc32)c1 [LXIII] :: > 18

(Q) Indicate the recorded CI EV70 (C)/(A) value for this compound: Brc1ccc2[nH]c(CNc3ccncc3)nc2c1 [I]
(A) 101

(Q) For the compound CC(=O)OCCOCn1c(CNc2ccncc2)nc2ccccc21 [LV] , report CI EV70 (C)/(A).
(A) > 63

(Q) Quote CI EV70 (C)/(A) reported for CCc1ccc2c(c1)nc(CNc1ccncc1)n2C [XXXVII] please.
(A) > 5

(Q) Provide CI EV70 (C)/(A) value for the following compound: Cc1cc2nc(CNc3ccncc3)[nH]c2cc1F [XXX]
(A) > 8

(Q) Hello, please tell me recorded CI EV70 (C)/(A) for this one: Brc1ccc(-n2c(CNc3ccncc3)nc3ccccc32)cc1 [LX]
(A) > 53

(Q) Tell me measured CI EV70 (C)/(A) for Cc1cc2nc(CNc3ccncc3)[nH]c2cc1Br [XXVIII] please.
(A) 88

(Q) Check the records and state CI EV70 (C)/(A) for CCCCCn1c(CNc2ccncc2)nc2ccccc21 [XVI]
(A) 643

(Q) Using the record for Cn1c(CNc2ccncc2)nc2ccc(Cl)cc21 [XXXIX] , state its measured CI EV70 (C)/(A).
(A) > 2

(Q) Read off the recorded CI EV70 (C)/(A) for c1ccc(-n2c(CNc3ccncc3)nc3ccccc32)cc1 [XXI]
(A) 943

(Q) Write down CI EV70 (C)/(A) measured for item Ic1ccc2[nH]c(CNc3ccncc3)nc2c1 [III]
(A) > 15

---

Listing: CI CB4 (C)/(A) of selected molecules
# System: coxsackievirus type B4 (CB4)
# Procedure Text: Inhibition of CB4 plaque formation in LLC-MK2 cells
# Format: cell-based
# Experimental Setup: CI = CD50 (LLC-MK2)/IC50 (plaque)

Look over these answered cases.
Fc1ccc2[nH]c(CNc3ccncc3)nc2c1 :: 29
CCOc1ccc2[nH]c(CNc3ccncc3)nc2c1 :: > 1
CC(C)n1c(CNc2ccncc2)nc2ccccc21.Cl :: > 1
Cn1c(CNc2ccncc2)nc2ccccc21 :: > 31
Cn1c(CNc2ccncc2)nc2cc(Cl)ccc21 :: > 2

(Q) # assay system coxsackievirus type B4 (CB4): give CI CB4 (C)/(A) of "CC(C)CCn1c(CNc2ccncc2)nc2ccccc21.Cl"
(A) 4,159

(Q) Report CI CB4 (C)/(A) under test system coxsackievirus type B4 (CB4) for "CC=Cn1c(CNc2ccncc2)nc2ccccc21" .
(A) > 36

(Q) Look up and report CI CB4 (C)/(A), with coxsackievirus type B4 (CB4) as system, for "CCc1ccc(-n2c(CNc3ccncc3)nc3ccccc32)cc1"
(A) > 37

---

Listed here are compounds together with their documented CC50.
# Procedure Text: in vitro
# Experimental Setup: human, hela cells
Value expressed in µg/mL; do not type the unit.

Look over these answered cases.
Clc1ccc2nc(CNc3ccncc3)n(-c3ccccc3)c2c1 :: 17.8
Brc1ccc2[nH]c(CNc3ccncc3)nc2c1 :: 17.8
Cc1cc(Cl)c2nc(CNc3ccncc3)[nH]c2c1 :: 56.2
Fc1ccc2[nH]c(CNc3ccncc3)nc2c1 :: 56.2

Kindly review the next compound as well.
(Q) Return CC50 (reported value) for this compound: "Cc1cc(Cl)cc2[nH]c(CNc3ccncc3)nc12"
(A) 17.8

---

The compounds listed here are annotated with their CC50.
# Procedure Text: in vitro
# Experimental Setup: monkey, llc-mk2 cells

Reference set (6 entries):
CCCCCn1c(CNc2ccncc2)nc2ccccc21 [XVI] :: 1410 µg/mL
Clc1ccc(-n2c(CNc3ccncc3)nc3ccccc32)cc1Cl [LXIX] :: > 100 µg/mL
Cc1cc(C)c(-n2c(CNc3ccncc3)nc3ccccc32)c(C)c1 [LXXII] :: > 100 µg/mL
Cc1ccc(-n2c(CNc3ccncc3)nc3ccccc32)cc1 [XXII] :: 1410 µg/mL
CCCc1ccc2[nH]c(CNc3ccncc3)nc2c1 [V] :: 354 µg/mL
Fc1ccc2[nH]c(CNc3ccncc3)nc2c1 [II] :: 177 µg/mL

Attention now shifts to the item below.
(Q) Tell us which CC50 value is on record for CCCCCCCCn1c(CNc2ccncc2)nc2ccccc21 [XIX]
(A) 354 µg/mL

---

// reported CC50 for each item listed
# Procedure Text: in vitro
# Experimental Setup: human, hela cells

(Q) Please supply the value of reported CC50 for the item "Clc1ccc(-n2c(CNc3ccncc3)nc3ccccc32)cc1"
(A) > 100 µg/mL

(Q) Consider the compound "c1ccc(Oc2ccc3[nH]c(CNc4ccncc4)nc3c2)cc1" and give its recorded CC50.
(A) > 100 µg/mL

(Q) Return CC50 (reported value) for this compound: "CCc1ccc2c(c1)nc(CNc1ccncc1)n2-c1ccccc1"
(A) > 100 µg/mL

---

# Procedure Text: in vitro
# Experimental Setup: monkey, llc-mk2 cells
CC50 listing for selected compounds.

(Q) // Input: "Cc1ccc(-n2c(CNc3ccncc3)nc3ccccc32)cc1F" . Output its CC50 only.
(A) > 100 µg/mL

---

# System: coxsackievirus type B4 (CB4)
# Procedure Text: Inhibition of CB4 plaque formation in LLC-MK2 cells
# Assay type: cell-based
# Experimental Setup: CI = CD50 (LLC-MK2)/IC50 (plaque)
Observable: CI CB4 (C)/(A)
Provide a numeric answer; units are not to be included.

Cc1cc2nc(CNc3ccncc3)[nH]c2cc1Cl :: 15
Fc1ccccc1-n1c(CNc2ccncc2)nc2ccccc21 :: 233

Shifting focus to the molecule that follows.
(Q) Identify CI CB4 (C)/(A) associated with the molecule "CCCCCCCCn1c(CNc2ccncc2)nc2ccccc21"
(A) 24

---

# Procedure Text: in vitro
# Experimental Setup: monkey, llc-mk2 cells
Observable: CC50

Cl.Fc1cccc(-n2c(CNc3ccncc3)nc3ccccc32)c1 [LVIII, hydrochloride] :: > 1000 µg/mL

(Q) Find the measured CC50 of "FC(F)(F)c1ccc(-n2c(CNc3ccncc3)nc3ccccc32)cc1" and report it.
(A) > 100 µg/mL

(Q) Respond only with CC50 recorded for "CC(C)Cn1c(CNc2ccncc2)nc2ccccc21"
(A) > 2000 µg/mL

(Q) Please give measured CC50 of the following entry: "COc1cc2nc(CNc3ccncc3)[nH]c2cc1OC"
(A) > 100 µg/mL

(Q) Fill in reported CC50 for this entry: "Ic1ccc2[nH]c(CNc3ccncc3)nc2c1"
(A) > 100 µg/mL
